- Procedure Summary: Pharmacokinetic analysis of compound 23 plasma concentrations in patients (LC-MS/MS, non-compartmental)
- Format: in vivo, human
- Study Conditions: human; Cycle 1 Day 1, 15 mg once daily (n = 9), plasma, geometric mean
- Protocol: Patients were administered doses of compound 23 ranging from 5 to 50 mg once daily. Plasma concentrations of compound 23 were quantified using acetonitrile precipitation and LC-MS/MS. The peak area of the product ion of the analyte was measured against the peak area of the product ion of the stable label internal standard. A calibration curve spanning the curve range and containing at least six conentrations in duplicate was used to quantify the analyte concentration. […]
Parameter Measured: Cmax (ng/mL)
Reply with just the number (in ng/mL).

// sample C[C@H]1CCCN(Cc2cc3c(c(C(F)(F)F)c2)CN(c2cccc([C@]4(c5nncn5C)C[C@@H](C)C4)c2)C3=O)C1 , its Cmax was 16.2
